Entry source: ChEMBL document CHEMBL1157539

# Inhibition per entry
# Test system: Plasmodium falciparum
# procedureText: GSK_TCMDC: Inhibition of Plasmodium falciparum Dd2 in whole red blood cells, using parasite LDH activity as an index of growth. Test compounds present at 2uM
# Assay type: functional
measure: Inhibition (%)

> print(dat)
                                 itemsmiles     measure  resultunit  testvalue
1  Cc1cc(NC(=O)c2cc(Br)ccc2Cl)n(-c2nc(C)c(C)c(=O)[nH]2)n1  Inhibition           %         83
2  N#Cc1c(N2CCCCCC2)nc(N)c2c(N)nc3c(c12)CC(=O)N3c1ccc(F)cc1  Inhibition           %         91
3  Cc1ccc2nc3c(cc(C(=O)NCCc4ccccc4)c(=N)n3CCCOC(C)C)c(=O)n2c1  Inhibition           %         12
4  Br.CC(C)(Cc1ccc(Cl)cc1)NCCCCCCNCCc1ccc(O)c(O)c1  Inhibition           %          0
5  O=c1cc(NCCCNCc2[nH]c3cc(Cl)cc(Cl)c3c2Cn2cccn2)[nH]c2ccccc12  Inhibition           %          2

###

# Test system: Plasmodium falciparum
# procedureText: GSK_TCMDC: Inhibition of Plasmodium falciparum Dd2 in whole red blood cells, using parasite LDH activity as an index of growth. Test compounds present at 2uM
# Type: functional
measure: Inhibition (%)

> print(dat)
                                    compound  resultunit  testvalue
 1  COc1ccc2nc(C)cc(NCc3ccc4ccccc4c3)c2c1.Cl           %         75
 2  CC1(C)N=C(N)N=C(N)N1c1ccc([N+](=O)[O-])cc1.Cl           %          1
 3  CCCCCC(C)c1cc(O)c2c(c1)OC(C)(C)C=C2C1=CCN(Cc2ccccc2)CC1 (stereo not given)           %         96
 4      Cc1ccccc1Nc1cc(Nc2ccccc2C)c2ccccc2n1           %         93
 5  Cc1ccc(NC(=O)c2ccc(NCCCN3CC(C)CC(C)C3)c([N+](=O)[O-])c2)cc1F (stereo not given)           %         85
 6  O=C(NCc1ccc(Cl)c(Cl)c1)c1ccc(C2CCN(Cc3ccc4[nH]cnc4c3)CC2)cc1           %         31
 7    CCNC(=O)c1ccc(-n2nc(C)cc2-c2ccccc2)cc1           %         54
 8  O=C(Nc1cccc(-c2nn3ncccc3c2-c2ccnc(Nc3ccc(N4CCOCC4)cc3)n2)c1)c1c(F)cccc1F           %         75
 9      CCCCCCOc1ccccc1C(=O)NCCOc1ccc(Cl)cc1           %         37
10  CCC(C)CNC(=O)CN1CN(c2ccccc2)C2(CCN(C(=O)c3ccc(Br)cc3)CC2)C1=O (stereo not given)           %         88

###

# System: Plasmodium falciparum
# procedureText: GSK_TCMDC: Inhibition of Plasmodium falciparum Dd2 in whole red blood cells, using parasite LDH activity as an index of growth. Test compounds present at 2uM
# Format: functional
# Inhibition per entry
measure: Inhibition (%)

> print(dat)
                                    compound            assaytarget  testvalue
 1  CCCc1cc(N2CCC(N(CC)CC)C2)nc(Nc2ccc(OC)cc2)n1 (configuration not stated)  Plasmodium falciparum          4
 2  CC1CN(Cc2csc(Nc3ccccc3)n2)CC(C)O1 (configuration not stated)  Plasmodium falciparum         81
 3  CS(=O)(=O)NCCCNCc1cccc(-c2cccc(-c3nc4cc(C(F)(F)F)ccc4[nH]3)c2)c1.O=C(O)C(F)(F)F  Plasmodium falciparum        100
 4  Cc1ccc(NC(=O)c2ccc(CN3CCCN(Cc4cccc(O)c4)CC3)cc2)cc1.O=C(O)C(F)(F)F  Plasmodium falciparum         31
 5  CN1CCN(c2cc(NC(=O)Nc3ccc(-c4ccncc4)c(Cl)c3)ccc2Br)CC1  Plasmodium falciparum         99
 6                    NCCNc1ccnc2cc(Cl)ccc12  Plasmodium falciparum         54
 7  Cl.N#Cc1ccc2c(c1)CCN(CCC1CCC(NC(=O)/C=C/c3cc(Br)cs3)CC1)CC2 (configuration not stated)  Plasmodium falciparum          1
 8  COc1ccc(C(O)CNC(C)CCc2ccccc2)cc1C(F)(F)F.Cl (configuration not stated)  Plasmodium falciparum        100
 9  Cc1cc2c(NC(=O)NC3CCN(CCc4ccccc4Cl)CC3)cccc2cn1.Cl  Plasmodium falciparum         46
10  Cc1noc(-c2ccccc2)c1CN1CCCC2(CC(C(=O)NCc3cccc(F)c3F)=NO2)C1.O=C(O)C(F)(F)F (configuration not stated)  Plasmodium falciparum         28
11  O=C(NCCOc1ccccc1)[C@H](Cc1ccccc1)Nc1ccnc(NCC2CCCCC2)n1.O=C(O)C(F)(F)F  Plasmodium falciparum         73
12  CN(C)CCC(O)C=C(c1ccc(Cl)cc1)c1ccc(Cl)cc1 (configuration not stated)  Plasmodium falciparum         85
13  COc1ccc(CNC2CCN(c3ccc(NC(=O)c4cccc(Cl)c4)cc3)CC2)cc1OC  Plasmodium falciparum         13
14  CN1CCC(C(=O)Nc2ccc(-c3ccc(-c4nc5ccccc5[nH]4)s3)cc2)CC1  Plasmodium falciparum         22
15  COc1cccc(NC(=O)NC2CCN(CCCCCNC(=O)/C=C/c3ccc(Cl)c(Cl)c3)CC2)c1  Plasmodium falciparum          8
16      Cl.Nc1nc(N)c2c(ccc3c2ccn3C2CCCCC2)n1  Plasmodium falciparum         46
17  Cl.c1ccc(Oc2ccc(Nc3ccnc4cc(-c5ccc(CN6CCNCC6)o5)ccc34)cc2)nc1  Plasmodium falciparum         99
18  CCNc1cc(C(=O)N[C@@H](Cc2ccccc2)[C@H](O)CNC(C)CC(C)C)c(F)c(N2CCCCS2(=O)=O)c1.O=CO (some centres not stated)  Plasmodium falciparum         66
19  COc1cc(C(=O)NC2CCN(Cc3ccccc3)CC2)ccc1-c1nc2c(Cl)cc(C(F)(F)F)cc2[nH]1  Plasmodium falciparum         56
20  CCc1ccc(CN(CCCOc2cccc(CC(=O)NCc3c[nH]cn3)c2)Cc2ccc(-n3ccnc3)cc2)cc1  Plasmodium falciparum         28
21  COc1ccc(C2c3cc(OC)c(OC)cc3C(=NO)C2C)cc1OC (configuration not stated)  Plasmodium falciparum          6
22  CS(=O)(=O)c1ccc(CNCc2cccc(-c3cccc(-c4nc5cc(C(F)(F)F)ccc5[nH]4)c3)c2)cc1.O=C(O)C(F)(F)F  Plasmodium falciparum         96
23  CC1(C)[C@H]2CC[C@@H](CNc3nc(NCC(=O)Nc4ccc5ccccc5c4)nc(N4CCC(N5CCCC5)CC4)n3)[C@@H]1C2  Plasmodium falciparum         20
24           C=CCc1cc(SC)ccc1Oc1ccc(N)cc1.Cl  Plasmodium falciparum          2
25  Nc1cccc(CNCc2cccc(-c3cccc(-c4nc5cc(C(F)(F)F)ccc5[nH]4)c3)c2)c1.O=C(O)C(F)(F)F  Plasmodium falciparum         96
26  CCc1c(CCNCCCCCCNCc2ccc3c(c2CC)OCO3)ccc(OC)c1OC.Cl  Plasmodium falciparum         19
27  CC1(C)CN(CCC2CCC(NC(=O)/C=C/c3ccccc3F)CC2)Cc2ccc(C#N)cc21.Cl (configuration not stated)  Plasmodium falciparum         82
28  COc1cccc(-c2cccc(-c3ccc(NC(=O)c4ccc([N+](=O)[O-])o4)cc3)n2)c1  Plasmodium falciparum         94
29  COc1ccc2nc3cc(Cl)ccc3c(NCCNCC(O)CO)c2n1.Cl (configuration not stated)  Plasmodium falciparum        100
30       CCOc1cc(NCCSCc2nc[nH]c2C)nc2ccccc12  Plasmodium falciparum         10
31  O=C(Nc1ccccc1)Nc1cccc(-c2ccc(-c3nc4cc(C(F)(F)F)ccc4[nH]3)cc2)c1  Plasmodium falciparum         37
32  CCCCCN1CCCC(NS(=O)(=O)c2ccc(C(=O)Nc3cccc(C(F)(F)F)c3)cc2)C1.O=C(O)C(F)(F)F (configuration not stated)  Plasmodium falciparum          3
33  CC(CN(C)C)C(=O)Nc1ccc(-c2ccc(-c3nc4cc(C(F)(F)F)ccc4[nH]3)cc2)cc1 (configuration not stated)  Plasmodium falciparum         93
34  O=C(Nc1cccc(-c2cc3ccccc3[nH]2)c1)C1CCN(Cc2ccccc2O)CC1  Plasmodium falciparum         25
35  O=c1cc(NCCC(CNCCc2ccccc2)NCc2cc(Br)cc(Br)c2)[nH]c2ccccc12 (configuration not stated)  Plasmodium falciparum         47
36  Cc1cccc2nc(-c3ccc(-c4ccc(NC(=O)Nc5ccc(Cl)cc5)cc4)s3)[nH]c12  Plasmodium falciparum        100
37  NCc1cccc(-c2cccc(CNC3CCN(Cc4ccccc4)CC3)c2)c1.O=C(O)C(F)(F)F  Plasmodium falciparum         45
